- test-name: AUC (0 to infinity) in mouse at 1 mg/kg, iv
- Type: ADME, organism-based
- Parameters: time infinity, dose 1 mg/kg, route intravenous
- condition-notes: plasma
reported-metric: AUC(0-inf)
Could you kindly put the unit after your number?

State the recorded AUC(0-inf) for this entry: O=C(C=C1CCN(C(=O)c2ccccc2O)CC1)N[C@@H]1CCN(Cc2ccc3cc(F)ccc3c2)C1 190 ng·h/mL

###

- test-name: Tmax in mouse at 3 mg/kg, po
- Type: ADME, organism-based
- Design: dose 3 mg/kg, route oral
- condition-notes: in vivo
reported-metric: Tmax (min)
State just the number; it will be interpreted in min.

State the recorded Tmax for this entry: O=C(C=C1CCN(C(=O)c2ccccc2O)CC1)N[C@@H]1CCN(Cc2ccc3cc(F)ccc3c2)C1 48

###

- test-name: AUC (0 to infinity) in mouse at 3 mg/kg, po
- Type: ADME, organism-based
- Parameters: time infinity, dose 3 mg/kg, route oral
- condition-notes: plasma
reported-metric: AUC(0-inf) (ng·h/mL)
State just the number; it will be interpreted in ng·h/mL.

State the recorded AUC(0-inf) for this entry: O=C(C=C1CCN(C(=O)c2ccccc2O)CC1)N[C@@H]1CCN(Cc2ccc3cc(F)ccc3c2)C1 200

###

- test-name: Volume of distribution at steady state in mouse at 1 mg/kg, iv
- Assay type: ADME, organism-based
- Parameters: dose 1 mg/kg, route intravenous
- condition-notes: in vivo, read-out: Vdss
reported-metric: Vd (L/kg)
State just the number; it will be interpreted in L/kg.

State the recorded Vd for this entry: O=C(C=C1CCN(C(=O)c2ccccc2O)CC1)N[C@@H]1CCN(Cc2ccc3cc(F)ccc3c2)C1 9.88

###

- test-name: Permeability by PAMPA
- Type: ADME
- condition-notes: read-out: permeability
Field: Papp. Provide a value for each of the compounds that follow.

State the recorded Papp for this entry: Cc1ccc(C(=O)N2CCC(=CC(=O)N[C@@H]3CCN(Cc4ccc5cc(F)ccc5c4)C3)CC2)c(O)c1 27.3 ×10⁻⁶ cm/s

State the recorded Papp for this entry: O=C(NC1CC2CCC(C1)N2Cc1ccc2cc(F)ccc2c1)c1cc[n+]([O-])cc1C(=O)N1CCCCC1 (centres undefined) 4.7 ×10⁻⁶ cm/s

State the recorded Papp for this entry: O=C(NC1CC2CCC(C1)N2Cc1ccc2cc(F)ccc2c1)c1ccccc1-c1ccccc1 (centres undefined) > 30 ×10⁻⁶ cm/s

State the recorded Papp for this entry: O=C(C=C1CCN(C(=O)c2ccccc2)CC1)N[C@@H]1CCN(Cc2ccc3cc(F)ccc3c2)C1 19.9 ×10⁻⁶ cm/s
